# METHOD SUMMARY: Selectivity ratio IC50 for non-senescent human WI-38 cells to IC50 for ionizing radiation induced human WI-38 senescent cells
# Type: functional
READOUT TYPE: Ratio IC50
The response must contain the number and no unit.

COc1cc(/C=C/C(=O)N2CCCC=C(Br)C2=O)cc(OC)c1OC :: 6.5

input: Field request: Ratio IC50 | item: `O=C(C#Cc1ccccc1)N1CCC=CC1=O`
output: 1.6

input: Again, but for `COc1cc(/C=C/C(=O)N2CCC=C(F)C2=O)cc(OC)c1OC`
output: 0.8

input: Another compound to look at: COc1cc(/C=C/C(=O)N2CC(O)C=CC2=O)cc(OC)c1OC (stereo unspecified)
output: 1.5

input: What do you have for `COc1ccc(/C=C/C(=O)N2CCC=C(Cl)C2=O)cc1` ?
output: 0.7

input: Another: COc1cc(/C=C/C(=O)N2CCC(N(C)C)CC2=O)cc(OC)c1OC (stereo unspecified)
output: 3.4

input: Please answer likewise for `CN(C)CCOc1ccc(/C=C/C(=O)N2CCC=C(Cl)C2=O)cc1`
output: 1.5

input: What do you have for `CN(C)CCOc1ccc(/C=C/C(=O)N2CCCC=C(Cl)C2=O)cc1` ?
output: 1.3

input: And then `COc1cc(/C=C/C(=O)N2CCC=C(Cl)C2=O)cc(OC)c1OC` , what is it?
output: 8.1

input: Also check `COc1ccc(/C=C/C(=O)N2CCCC=C(Br)C2=O)cc1`
output: 4.4

input: Same thing, different compound: `COc1ccc(/C=C/C(=O)N2CCC=C(Br)C2=O)cc1`
output: 1.8
